system name: human SOS1 (loading of human K-Ras^G12C-GDP with fluorescent GTP-analog) (Homo sapiens)
test summary: Biochemical assay 3: K-Ras^G12C activation assay by hSOS1 (HTRF)
measurement setup: no GTP; read-out: Assay 3 (KRAS-Activation by SOS no GTP) activity expressed as IC50
pIC50: −log10 of the molar value.
Given measured pIC50, output true if it is greater than or equal to 6 and false if not.

# molecule, system name, class label
rows = [
    ("COc1cc2nc(C)nc(NC(C)c3ccc(-c4ccccc4CNc4cc[nH]n4)s3)c2cc1OC (stereo not shown)", "human SOS1 (loading of human K-Ras^G12C-GDP with fluorescent GTP-analog) (Homo sapiens)", "false"),
    ("COc1cc2nc(C)nc(NC(C)c3ccc(-c4ccccc4CN4CC5(CNC(=O)N5)C4)s3)c2cc1OC (stereo not shown)", "human SOS1 (loading of human K-Ras^G12C-GDP with fluorescent GTP-analog) (Homo sapiens)", "true"),
    ("COc1cc2nc(C)nc(NC(C)c3ccc(-c4ccccc4CNCC(=O)N4CCOCC4)s3)c2cc1OC (stereo not shown)", "human SOS1 (loading of human K-Ras^G12C-GDP with fluorescent GTP-analog) (Homo sapiens)", "true"),
    ("COc1cc2nc(C)nc(NC(C)c3ccc(-c4ccc(F)cc4CNC(=O)CNCC(F)(F)F)s3)c2cc1OC (stereo not shown)", "human SOS1 (loading of human K-Ras^G12C-GDP with fluorescent GTP-analog) (Homo sapiens)", "false"),
    ("COc1cc2nc(C)nc(N[C@H](C)c3cccc(-c4ccc5c(ccn5C)c4)c3)c2cc1OC", "human SOS1 (loading of human K-Ras^G12C-GDP with fluorescent GTP-analog) (Homo sapiens)", "false"),
    ("COc1cc2nc(C)nc(NC(C)c3ccc(-c4ccccc4CN4CCN(C(=O)OC(C)(C)C)CC4)s3)c2cc1OC (stereo not shown)", "human SOS1 (loading of human K-Ras^G12C-GDP with fluorescent GTP-analog) (Homo sapiens)", "false"),
    ("COc1cc2nc(C)nc(NC(C)c3ccc(-c4ccccc4CNC4CCCC4)s3)c2cc1OC (stereo not shown)", "human SOS1 (loading of human K-Ras^G12C-GDP with fluorescent GTP-analog) (Homo sapiens)", "true"),
    ("COc1cc2nc(C)nc(N[C@H](C)c3cccc(-c4ccc(O)nc4)c3)c2cc1OC", "human SOS1 (loading of human K-Ras^G12C-GDP with fluorescent GTP-analog) (Homo sapiens)", "true"),
    ("COc1cc2nc(C)nc(N[C@H](C)c3cccc(-c4cn[nH]c4)c3)c2cc1OC(C)C", "human SOS1 (loading of human K-Ras^G12C-GDP with fluorescent GTP-analog) (Homo sapiens)", "true"),
    ("COC(=O)c1cc2c(C(C)Nc3nc(C)nc4cc(OC)c(OC)cc34)cccc2s1 (stereo not shown)", "human SOS1 (loading of human K-Ras^G12C-GDP with fluorescent GTP-analog) (Homo sapiens)", "true"),
]

Ref: patent US20240083857A1
